Tested on: MV4-11
Experiment: Antiproliferative activity against human MV4-11 cells assessed as cell viability after 72 hrs by CCK8 assay
Assay type: functional, cell-based
Conditions: MV4-11, 72 h
pIC50: −log10 of the molar value.
measured-attribute: pIC50

P. CC(C)Oc1ccc(C(C)(C)O)cc1-c1cn(C)c(=O)c2[nH]c(C(=O)NCCCCCCC(=O)NO)cc12
Q. Cc1cc(F)cc(C)c1Oc1ccc(C(C)(C)O)cc1-c1cn(C)c(=O)c2[nH]c(C(=O)NCc3ccc(C(=O)NO)cc3)cc12
Compare pIC50: is it lower for P or for Q ? Your answer should be the label attached to the chosen record.
Q

---

System: MV4-11
Assay: Antiproliferative activity against human MV4-11 cells assessed as cell viability after 72 hrs by CCK8 assay
Assay type: functional, cell-based
Details: MV4-11, 72 h
pIC50: −log10 of the molar value.
measured-attribute: pIC50

structure_string=Cc1cc(F)cc(C)c1Oc1ccc(C(C)(C)O)cc1-c1cn(C)c(=O)c2[nH]c(C(=O)NCCCCCCC(=O)NO)cc12 subject_of_test=MV4-11 numeric_value=6.52
structure_string=Cn1cc(-c2cc(C(C)(C)O)ccc2OC2CC2)c2cc(C(=O)NCc3ccc(C(=O)NO)cc3)[nH]c2c1=O subject_of_test=MV4-11 numeric_value=6.38
structure_string=COc1ccccc1-c1cn(C)c(=O)c2[nH]c(C(=O)NCc3ccc(C(=O)Nc4ccccc4N)cc3)cc12 subject_of_test=MV4-11 numeric_value=6.70
structure_string=Cn1cc(-c2ccccc2)c2cc(C(=O)NCc3ccc(C(=O)Nc4ccccc4N)cc3)[nH]c2c1=O subject_of_test=MV4-11 numeric_value=6.64
structure_string=Cc1cc(F)cc(C)c1Oc1ccc(C(C)(C)O)cc1-c1cn(C)c(=O)c2[nH]c(C(=O)NCc3ccc(C(=O)Nc4ccccc4N)cc3)cc12 subject_of_test=MV4-11 numeric_value=6.62

A. Cn1cc(-c2cc(C(C)(C)O)ccc2OC2CC2)c2cc(C(=O)NCCCCCCC(=O)NO)[nH]c2c1=O
B. Cn1cc(-c2cc(C(C)(C)O)ccc2Oc2ccccc2)c2cc(C(=O)NCc3ccc(C(=O)Nc4ccccc4N)cc3)[nH]c2c1=O
C. Cn1cc(-c2ccccc2Oc2ccccc2)c2cc(C(=O)NCCCCCC(=O)NO)[nH]c2c1=O
Rank the items in ascending order with respect to pIC50. Submit the labels in the order that the ranking request calls for.
C, A, B
